Test system: HPPD polypeptides (wild-type SEQ ID NO:1 and mutants)
Conditions: in the presence of Cmpd. 2, 15 μM inhibitor, high substrate concentration; total change in signal normalized to no inhibitor

| MOLECULE | Residual turnover |
| --- | --- |
| 29 (protein, mutant HPPD polypeptide) MADLYENPMGLMGFEFIEFASPTPGTLEPIFEIMGFTKVATHRSKNVHLYRQGEINLILNNEPNSIASYFAAEHGPSVCGMAFRVKDSQKAYNRALELGAQPIHIDTGPMELNLPAIKGIGGAPLYLIDRFGEGSSIYDIDFVYLEGVERNPVGAGLKVIDHLTHNVYRGRMVYWANFYEKLFNFREARYFDIKGEYTGLTSKAMSAPDGMIRIPLNEESSKGAGQIEEFLMQFNGEGIQHVAFLTDDLVKTWDALKKIGMRFMTAPSDSYYEMLEGRLPDHGEPVDQLQARGILLDGSSVEGDKRLLLQIFSETLMGPVFFEFIQRKGDDGFGPHSFKVLFESVERDQVRRGVLTAD | n.i. |
| 31 (protein, mutant HPPD polypeptide) MADLYENPMGLMGFEFIEFASPTPGTLEPIFEIMGFTKVATHRSKNVHLYRQGEINLILNNEPNSIASYFAAEHGPSVCGMAFRVKDSQKAYNRALELGAQPIHIDTGPMELNLPAIKGIGGAPLYLIDRFGEGSSIYDIDFVYLEGVERNPVGAGLKVIDHLTHNVYRGRMVYWANFYEKLFNFREARYFDIKGEYTGLTSKAMSAPDGMIRIPLNEESSKGAGQIEEFLMQFNGEGIQHVAFLTDDLVKTWDALKKIGMRFMTAPGDEYYEMLEGRLPDHGEPVDQLQARGILLDGSSVEGDKRLLLQIFSETLMGPVFFEFIQRKGDDGFGPHSFKVLFESVERDQVRRGVLTAD | n.i. |
